Source listed as PubChem BioAssay (NCI).

- Tested on: HS 578T breast
- MEASUREMENT_PROTOCOL: NCI-60 one-dose screen, 48 h (100 = growth as untreated, 0 = no growth, -100 = all killed)
- PARTICULARS: 10 µM unless noted
- Protocol: Growth inhibition of the HS 578T human tumor cell line is measured as a screen for anti-cancer activity. Cells are grown in 96 well plates and exposed to the test compound for 48 hours. Compounds are tested at a single concentration, which is 10^-5 M for most compounds. The reported endpoint is percent growth (GI% or GIPRCNT), where numbers from 0 - 100% represent growth inhibition, and numbers from -100% - 0 represent cell death. For example, a value of 40 represents 60% growth inhibition. […]
About 83,000 compounds went through this panel and 20% of them were active in at least one assay; those are over-represented in the sample as a whole.
PARAMETER_MEASURED: growth (%)
Expressed in %, but write only the number.

Solved cases below.
CCc1nn2c(-c3ccc(Cl)cc3C)c(-c3cc(OC)c(OC)c(OC)c3)nc2s1 :: 48.5
COc1ccc(-n2cnc3cc(C(=O)N4CCCCC4)ccc32)cc1 :: 100
COc1ccc(/C=C/C(=O)c2cccc(NS(C)(=O)=O)c2)cc1 :: 83.2
C[C@]12CCC(=O)C=C1CCC1C2[C@@H](O)C[C@@]2(C)C1CC[C@]2(O)C(=O)COC(=O)CCC(=O)O (some centres undefined) :: 138
Cc1cc(C(=O)Nc2ccc3cc(CN4CCOCC4)ccc3n2)c(C)n1-c1ccccc1 :: 82.3
CC(=O)OC1Oc2cc(C)c(C)cc2-c2oc(=O)c(-c3ccccc3)cc21 (centres undefined) :: -19.5

Challenge: Entry NC(=O)NS(=O)(=O)c1ccc(N2N=C(C(F)(F)F)CC2c2cc(C(F)(F)F)cc(C(F)(F)F)c2)cc1 (centres undefined) has what growth?
Response given: 66.5

Challenge: Please report the recorded growth for CSc1nc2nc3c(c(-c4ccc(C)cc4)c2c(=O)[nH]1)CN(C)C/C3=C\c1ccc(C)cc1 .
Response given: 95.8

Challenge: Item under review: COCCCNS(=O)(=O)c1ncnc2nc[nH]c12 . Reported growth?
Response given: 104
